Test system: LB771-HNC (Head and Neck Carcinoma)
experimentalDetails: Bliss excess, mean over the matrix (fraction); higher = more synergy;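 further: after 72 h of two-drug dosing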
measureName: Bliss excess
Hey, just send me the number, nothing else.

// query Bliss excess value for entry CCN(CCO)CCCOc1ccc2c(Nc3cc(CC(=O)Nc4cccc(F)c4)[nH]n3)ncnc2c1 [AZD2811] + C=CCn1c(=O)c2cnc(Nc3ccc(N4CCN(C)CC4)cc3)nc2n1-c1cccc(C(C)(C)O)n1 [AZD1775] (first compound max 1 µM, partner max 1 µM)
-0.0295

Dear colleague, I am looking for the recorded Bliss excess of the following molecule: COc1cccc(OCCCN)c1-c1cc(Nc2cnc(C#N)cn2)n[nH]1 [Prexasertib] + CCc1c2c(nc3ccc(O)cc13)-c1cc3c(c(=O)n1C2)COC(=O)[C@]3(O)CC [SN-38] (first compound max 1 µM, 7x7, partner max 0.3 µM)
0

Recorded Bliss excess of Cc1cc2ncnn2cc1Nc1ncc2c(n1)n(C1CCOCC1)c(=O)n2C [AZD7648] + CCN(CCO)CCCOc1ccc2c(Nc3cc(CC(=O)Nc4cccc(F)c4)[nH]n3)ncnc2c1 [AZD2811] (first compound max 10 µM, 7x7, partner max 1 µM) , please.
0

If you can, please state the reported Bliss excess value of CN(CCO)CC[C@H](CSc1ccccc1)Nc1ccc(S(=O)(=O)NC(=O)c2ccc(N3CCC([C@@H](O)c4ccccc4-c4ccc(Cl)cc4)CC3)cc2)cc1S(=O)(=O)C(F)(F)F [AZD4320] + Cn1cnc2c(F)c(Nc3ccc(Br)cc3Cl)c(C(=O)NOCCO)cc21 [Selumetinib] (first compound max 1 µM, 7x7, partner max 3 µM) .
0.0178

----------
Tested on: OVCAR-8 (Ovarian Carcinoma)
experimentalDetails: Bliss excess, mean over the matrix (fraction); higher = more synergy
Collected Bliss excess values appear next to each entry.
# output: bare number, no unit

Worked cases, answers included:
[[record]]
compound = "CC(=O)c1c(C)c2cnc(Nc3ccc(N4CCNCC4)cn3)nc2n(C2CCCC2)c1=O [Palbociclib] + CN(CC[C@H](CSC1=CC=CC=C1)NC2=C(C=C(C=C2)S(=O)(=O)NC(=O)C3=CC=C(C=C3)N4CCC(CC4)[C@H](C5=CC=CC=C5C6=CC=C(C=C6)Cl)O)S(=O)(=O)C(F)(F)F)CCO [AZD4320] (first compound max 10 µM, 7x7, partner max 1 µM)"
testedtarget = "OVCAR-8 (Ovarian Carcinoma)"
number = -0.0261

[[record]]
compound = "Cc1c2c(nn1C)CSCc1cc(n(C)n1)CSc1cc(c3ccccc3c1)OCCCc1c(C(=O)O)n(C)c3c-2c(Cl)ccc13 [AZD5991] + CCN(CCO)CCCOc1ccc2c(Nc3cc(CC(=O)Nc4cccc(F)c4)[nH]n3)ncnc2c1 [AZD2811] (first compound max 1 µM, 7x7, partner max 1 µM)"
testedtarget = "OVCAR-8 (Ovarian Carcinoma)"
number = 0.0412


For CC1(C)CCC(CN2CCN(c3ccc(C(=O)NS(=O)(=O)c4ccc(NCC5CCOCC5)c([N+](=O)[O-])c4)c(Oc4cnc5[nH]ccc5c4)c3)CC2)=C(c2ccc(Cl)cc2)C1 [Venetoclax] + C1CN(CCC1(C(=O)N[C@@H](CCO)C2=CC=C(C=C2)Cl)N)C3=NC=NC4=C3C=CN4 [Capivasertib] (first compound max 1 µM, 7x7, partner max 3 µM) , what is its reported Bliss excess?
-0.0504

----------
Test system: K5 (Thyroid Gland Carcinoma)
experimentalDetails: Bliss excess, mean over the matrix (fraction); higher = more synergy
Collected Bliss excess values appear next to each entry.
Form rule: numeric answer, no unit written next to it.

Consider the following illustrative entries.
[[record]]
compound = "COc1nnc2ccc(N3CCC(c4ccc(OCCN5CCN(C)C(=O)[C@H]5C)cc4)CC3)nn12 [AZD5153] + CC1(C)CCC(CN2CCN(c3ccc(C(=O)NS(=O)(=O)c4ccc(NCC5CCOCC5)c([N+](=O)[O-])c4)c(Oc4cnc5[nH]ccc5c4)c3)CC2)=C(c2ccc(Cl)cc2)C1 [Venetoclax] (first compound max 1 µM, 7x7, partner max 1 µM)"
measurename = "Bliss excess"
number = -0.049

[[record]]
compound = "Cc1c2c(nn1C)CSCc1cc(n(C)n1)CSc1cc(c3ccccc3c1)OCCCc1c(C(=O)O)n(C)c3c-2c(Cl)ccc13 [AZD5991] + CS(=O)(=O)CCNCc1ccc(-c2ccc3ncnc(Nc4ccc(OCc5cccc(F)c5)c(Cl)c4)c3c2)o1 [Lapatinib] (first compound max 1 µM, 7x7, partner max 10 µM)"
measurename = "Bliss excess"
number = -0.0063


Please examine the following record next.
So what's the measured Bliss excess for this one? O=C(c1cc(Cc2n[nH]c(=O)c3ccccc23)ccc1F)N1CCN(C(=O)C2CC2)CC1 [Olaparib] + COc1nnc2ccc(N3CCC(c4ccc(OCCN5CCN(C)C(=O)[C@H]5C)cc4)CC3)nn12 [AZD5153] (first compound max 10 µM, 7x7, partner max 1 µM)
-0.0392

----------
Test system: COLO-829 (Melanoma)
experimentalDetails: Bliss excess, mean over the matrix (fraction); higher = more synergy
List of Bliss excess values.
Respond with the number and no other words.

[[record]]
compound = "Cc1nc(Nc2ncc(C(=O)Nc3c(C)cccc3Cl)s2)cc(N2CCN(CCO)CC2)n1 [Dasatinib] + CC(=O)Nc1cccc(-n2c(=O)n(C3CC3)c(=O)c3c(Nc4ccc(I)cc4F)n(C)c(=O)c(C)c32)c1 [Trametinib] (first compound max 2 µM, 7x7, partner max 1 µM)"
number = -0.159

[[record]]
compound = "Cc1cc2ncnn2cc1Nc1ncc2c(n1)n(C1CCOCC1)c(=O)n2C [AZD7648] + O=C(c1cc(Cc2n[nH]c(=O)c3ccccc23)ccc1F)N1CCN(C(=O)C2CC2)CC1 [Olaparib] (first compound max 10 µM, 7x7, partner max 10 µM)"
number = -0.0378

[[record]]
compound = "CC1(C)CCC(CN2CCN(c3ccc(C(=O)NS(=O)(=O)c4ccc(NCC5CCOCC5)c([N+](=O)[O-])c4)c(Oc4cnc5[nH]ccc5c4)c3)CC2)=C(c2ccc(Cl)cc2)C1 [Venetoclax] + C[C@@H](Nc1cc(F)cc(F)c1)c1cc(C(=O)N(C)C)cc2c(=O)cc(N3CCOCC3)oc12 [AZD8186] (first compound max 1 µM, 7x7, partner max 3 µM)"
number = -0.0019

[[record]]
compound = "Cc1c2c(nn1C)CSCc1cc(n(C)n1)CSc1cc(c3ccccc3c1)OCCCc1c(C(=O)O)n(C)c3c-2c(Cl)ccc13 [AZD5991] + CN(C)CCCOc1ccc(-c2ccc3ncc4c(c3c2)n(C2CCOCC2)c(=O)n4C)cn1 [AZD0156] (first compound max 1 µM, 7x7, partner max 1 µM)"
number = -0.0492

[[record]]
compound = "CC1(C)CCC(CN2CCN(c3ccc(C(=O)NS(=O)(=O)c4ccc(NCC5CCOCC5)c([N+](=O)[O-])c4)c(Oc4cnc5[nH]ccc5c4)c3)CC2)=C(c2ccc(Cl)cc2)C1 [Venetoclax] + COc1cc(Nc2ncc3c(n2)-c2ccc(Cl)cc2C(c2c(F)cccc2OC)=NC3)ccc1C(=O)O [Alisertib] (first compound max 1 µM, 7x7, partner max 10 µM)"
number = -0.0548


Now let's try a different one.
Any idea what Bliss excess was measured for CC1(C)CCC(CN2CCN(c3ccc(C(=O)NS(=O)(=O)c4ccc(NCC5CCOCC5)c([N+](=O)[O-])c4)c(Oc4cnc5[nH]ccc5c4)c3)CC2)=C(c2ccc(Cl)cc2)C1 [Venetoclax] + C[C@@H]1COCCN1C2=NC(=NC(=C2)C3(CC3)[S@](=N)(=O)C)C4=C5C=CNC5=NC=C4 [AZD6738] (first compound max 1 µM, 7x7, partner max 10 µM) ?
0.0059

----------
# Bliss excess per record follows
System: TE-4 (Esophageal Squamous Cell Carcinoma)
experimentalDetails: Bliss excess, mean over the matrix (fraction); higher = more synergy
Kindly provide the number alone.

// solved cases for Bliss excess follow
[[record]]
molecule = "CC1(C)CCC(CN2CCN(c3ccc(C(=O)NS(=O)(=O)c4ccc(NCC5CCOCC5)c([N+](=O)[O-])c4)c(Oc4cnc5[nH]ccc5c4)c3)CC2)=C(c2ccc(Cl)cc2)C1 [Venetoclax] + Cc1cc2ncnn2cc1Nc1ncc2c(n1)n(C1CCOCC1)c(=O)n2C [AZD7648] (first compound max 1 µM, 7x7, partner max 10 µM)"
number = -0.0106

[[record]]
molecule = "Cc1c2c(nn1C)CSCc1cc(n(C)n1)CSc1cc(c3ccccc3c1)OCCCc1c(C(=O)O)n(C)c3c-2c(Cl)ccc13 [AZD5991] + CC1(C)CCC(CN2CCN(c3ccc(C(=O)NS(=O)(=O)c4ccc(NCC5CCOCC5)c([N+](=O)[O-])c4)c(Oc4cnc5[nH]ccc5c4)c3)CC2)=C(c2ccc(Cl)cc2)C1 [Venetoclax] (first compound max 1 µM, 7x7, partner max 1 µM)"
number = 0.0017


Shifting focus to the molecule that follows.
Return reported Bliss excess; argument: CC1(C)CCC(CN2CCN(c3ccc(C(=O)NS(=O)(=O)c4ccc(NCC5CCOCC5)c([N+](=O)[O-])c4)c(Oc4cnc5[nH]ccc5c4)c3)CC2)=C(c2ccc(Cl)cc2)C1 [Venetoclax] + C=CCn1c(=O)c2cnc(Nc3ccc(N4CCN(C)CC4)cc3)nc2n1-c1cccc(C(C)(C)O)n1 [AZD1775] (first compound max 1 µM, partner max 1 µM)
-0.0529
